Reported MAX MFI is given for each of the following binders.
measuredTarget: T1, human Claudin18.2 (CLDN18.2) (human, UniProt P56856 1-261)
T1 construct: the cell line is named under assay; also called human Claudine18.2; hClaudin18.2
testProtocol: FACS on GAXC031 cells, antibody at 50 µg/ml

binder	MAX MFI
chAb17 (antibody, V domains shown) VH: QVQLKESGPGLVAPSQSLSITCTVSGFSLTSYAISWVRQPPGKGLEWLGEIWTGGGTNYNSALKSRLSISKDNSKSQVFLKMNSLQTDDTARYYCGRLSYGNSLDYWGQGTTLTVSS VL: DIVMTQSPSSLTVTAGEKVTMSCKSSQSLLNSGNQKNYLTWYQQKPGQPPKLLIYWASTRESGVPDRFTGSGSGTDFTLTVSSVQAEDLAVYYCQNNFIYPLTFGPGTKLELK	4230
chAb15 (antibody, V domains shown) VH: EVMLVESGGDLVKPGGSLKLSCAASGFTFSTYTMSWVRQTPEKRLEWVATIVGGGGYTYYLDSVKGRFTISRDNAKNTLYLQMISLRSEDTALYYCARMGLTQRNALDYWGQGTSITVSS VL: DIVMTQSPSSLSVSEGEKVTLNCKSSQSLFNSGNQKNYLAWYQQKPGQPPKLLIYGASTRESGVPDRFTGSGFGTDFTLTISSVQAEDLAVYYCQNDHTYPLTFGAGAKLELK	6110
chAb20 (antibody, V domains shown) VH: EVMLVESGGGLVKPGGSLKLSCVASGFTFSSYTMSWVRQTPEKRLEWVATIIGGYGNTYYSDSVKGRITISRDSAKNTLYLQMISLRSEDTALYYCTRLGQTQRNAMDYWGQGTSVTVSS VL: DILMTQSPSSLSVSAGEKVTMNCKSSQSLLNSGNQKNYLAWYQQKPGQPPKLLIYGASTRESGVPDRFTGSGSGTDFTLTISSVQAEDLAVYYCQNDYYYPFTFGAGTKLEL	6260
